Value source: the supplement of paper PMC6555819

System: VDR:RXRa (NR concentration 270 nM, RXRa partner concentration 90 nM)
assay.overview: PBM binding z-score (relative to random genomic background probes); higher = stronger binding; sequences stand for … in GC…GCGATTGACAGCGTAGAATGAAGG
Each entry below carries its reported PBM binding z-score.
Answer with the value's number alone.

These recorded examples may help you get a feel for the data.
1) CCAAGTAGGTTACGAGGGGGCATTCAGTGCGAAT :: 5.54
2) AGAATGAGGTTACACGTAGATCAGGGAAGAAAGT :: 1.67
3) CGGACTAGGTCACCAGGACAGTGAAGAGGTTGGA :: 1.54

Bench note: what PBM binding z-score did CGACCTAGGTCAAAGGACAGTGAAAGGCGACGTA show?
2.05

Bench note: what PBM binding z-score did CCTAGTTGGTCAAGCTCACACACGCTATAGGTAC show?
0.609

Bench note: what PBM binding z-score did CGTCCAAGGTCAGAGAGGTCAGTGACTGCCGAGT show?
7.27

Bench note: what PBM binding z-score did CCTAGTTGGTCAAGGTAACACACGCTATAGGTAC show?
0.707

----------
Tested on: PPARg:RXRa (NR concentration 180 nM, RXRa partner concentration 90 nM)
assay.overview: PBM binding z-score (relative to random genomic background probes); higher = stronger binding; sequences stand for … in GC…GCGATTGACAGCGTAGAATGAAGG
observable: PBM binding z-score
Answer with the value's number alone.

These recorded examples may help you get a feel for the data.
1. ATATGTAGGTTACGTCCGGGTCATTCAGGCTATG :: 5.86
2. CCGAGTAGGTTACGAGGCGGCATTCAGTGCGAAT :: 0.984
3. AGTCAAATTTCATCTAGGTAACGTAAGATATGCT :: 1.02
4. ATCTAAAGGTCGAAGGTGAGTATACCCACCCGAA :: 5.11
5. ATCCAAAGGTCGAGGTGAGTATAGAGAAAGGGAA :: 4.74

Bench note: what PBM binding z-score did CCGAGTAAGTTACGAGGGGGCATTCAGTGCGAAT show?
-0.0159

Bench note: what PBM binding z-score did CCTAGTTGGTCAGGAAGTCACACACCGGATATGA show?
0.696

Bench note: what PBM binding z-score did CGAACTAGGTCACCAGGACACTGAAGAGGTTGGA show?
8.46

----------
Tested on: PPARg:RXRa IVT, anti-PPARg (NR concentration 270 nM, RXRa partner concentration 90 nM)
assay.overview: PBM binding z-score (relative to random genomic background probes); higher = stronger binding; sequences stand for … in GC…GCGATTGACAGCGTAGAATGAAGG
observable: PBM binding z-score
Answer with the value's number alone.

Bench note: what PBM binding z-score did CGAACTACGTCAAAGGACAGTGAAAGGCGACGTA show?
-0.152

Bench note: what PBM binding z-score did CAAACTAGGTCAAAGGTCAAAGCCGAGCCAACCA show?
8.57

Bench note: what PBM binding z-score did CTACGTAGGTTAAGGGGGTCATTCAGTTTGAAAG show?
4.54

Bench note: what PBM binding z-score did CGAACTAGGTCATCAGGACAGTGAAGAGGTTGGA show?
8.18

Bench note: what PBM binding z-score did CGTCCGAGGTCAATGCTAGGTCAGTGAAAGCATT show?
4.42

----------
Tested on: THRa:RXRa (NR concentration 90 nM, RXRa partner concentration 90 nM)
assay.overview: PBM binding z-score (relative to random genomic background probes); higher = stronger binding; sequences stand for … in GC…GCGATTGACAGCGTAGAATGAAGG
Give Condition met when the value for PBM binding z-score is at least 2. Give Condition not met when it is less.

Use the examples below as a reference point.
1. GCTGCTAGGTCAGGTTGGTCAACTAACGGGTACG :: Condition not met
2. ATATGTAGGTTAGGGTCATTCAGAAAGTAGGGAA :: Condition met
3. CAAACTAGGTCACGAAAGGTCAAAGTGGAATGAC :: Condition met
4. TAGCCTAGGTCATGCGGGCCAGTATAGTGTCGGC :: Condition met
5. GGAACGAGCGCAAAGTTGATAGCATCTGTCGACG :: Condition not met
6. CGAACTAGGTCATCGAGGACAGTGAATACATTGA :: Condition met

Check if PBM binding z-score >= 2 (inclusive). Item: CTATGTAGGTTAAGGGGGGCATTCAGTTTGAAAG
Condition met

Check if PBM binding z-score >= 2 (inclusive). Item: CCGAGTAGGTTATGAGGGGGCATTCAGTGCGAAT
Condition met

Check if PBM binding z-score >= 2 (inclusive). Item: CAAACTAGGTCACCAGGACAGTGAAGAGGTTGGA
Condition met

Check if PBM binding z-score >= 2 (inclusive). Item: CGAACTAGGTAACCAGGACAGTGAAGAGGTTGGA
Condition not met

Check if PBM binding z-score >= 2 (inclusive). Item: TCTGCTGGGTCAACGATGGTCAGCTAATCTGCTA
Condition met

Check if PBM binding z-score >= 2 (inclusive). Item: CCTACTGGGCCAAAACGGTCATTGATGCCGATAA
Condition not met

----------
Test system: PPARg:RXRa DBDmut IVT, anti-RXR (DBD mutation: RXRa K156A/R161A, NR concentration 270 nM, RXRa partner concentration 90 nM)
assay.overview: PBM binding z-score (relative to random genomic background probes); higher = stronger binding; sequences stand for … in GC…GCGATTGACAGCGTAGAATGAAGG
Give true (1) when the value for PBM binding z-score is at least 5. Give false (0) when it is less.

1. CTATGTAGGTTAAGGGGGTCATTCACTTTGAAAG :: true (1)
2. CGAACTAGGTCACCAGGACGGTGAAGAGGTTGGA :: true (1)
3. CCGAGTATGTTACGAGGGGGCATTCAGTGCGAAT :: false (0)
4. CCGACTAGGTTACGAGGGGGCATTCAGTGCGAAT :: false (0)
5. CCTACTGGGCCATTCAGAGGTCATCGATCATATG :: false (0)

Check if PBM binding z-score >= 5 (inclusive). Item: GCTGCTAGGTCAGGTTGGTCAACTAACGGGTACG
false (0)

Check if PBM binding z-score >= 5 (inclusive). Item: ATATGTAGGTTAGGGTCGTTCAGAAAGTAGGGAA
true (1)

Check if PBM binding z-score >= 5 (inclusive). Item: TCGAGTAGGTTGCGGGGGCATTCAGGGATGAAGA
false (0)

Check if PBM binding z-score >= 5 (inclusive). Item: CTGAGTAGGTTACGAGGGGGCATTCAGTGCGAAT
true (1)

----------
Each entry below carries its reported PBM binding z-score.
System: PPARa:RXRa (NR concentration 270 nM, RXRa partner concentration 90 nM)
assay.overview: PBM binding z-score (relative to random genomic background probes); higher = stronger binding; sequences stand for … in GC…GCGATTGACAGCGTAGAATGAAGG
Answer with the value's number alone.

These recorded examples may help you get a feel for the data.
1) CAAACTAGGTCACCGGAAAGTCAAAGTCCGCATG :: 5.64
2) CCGACGGGGGCAAGGTTACCATAACGCACAGCCA :: 3.96
3) ATCGAACGGTCGACGAGGTGAGTATACACCGTTT :: -0.0739

Bench note: what PBM binding z-score did CGGAGTAGGTTACGAGGGGGCATTCAGTGCGAAT show?
4.04

Bench note: what PBM binding z-score did CCTAGCAGGCCAGGTTCACTCAAGCATTTCGCTT show?
0.874

Bench note: what PBM binding z-score did TATTGTAGATCAAAGGTTAAGAAAGCCGAAGCCT show?
4.99

----------
Tested on: THRa:RXRa (NR concentration 90 nM, RXRa partner concentration 90 nM)
assay.overview: PBM binding z-score (relative to random genomic background probes); higher = stronger binding; sequences stand for … in GC…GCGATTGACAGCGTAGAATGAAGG
Each entry below carries its reported PBM binding z-score.
Answer with the value's number alone.

These recorded examples may help you get a feel for the data.
1) TCGAGTAGGATACGGGGGCATTCAGGGATGAAGA :: 3.47
2) ATATGTAGGTTAGCTGGGGTCATTCCGACTAGGC :: 4.98
3) CCTTACGGGTCACTGACAGCTTATAGCATTTGGA :: 2.32

Okay, now this sequence:
Item ATATGTAGGTTAGTGTCATTCAGAAAGTAGGGAA with THRa:RXRa (NR concentration 90 nM, RXRa partner concentration 90 nM) - PBM binding z-score?
0.837

----------
Tested on: PPARg:RXRa 30nM:10nM, anti-RXR (NR concentration 30 nM, RXRa partner concentration 10 nM)
assay.overview: PBM binding z-score (relative to random genomic background probes); higher = stronger binding; sequences stand for … in GC…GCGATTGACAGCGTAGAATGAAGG
observable: PBM binding z-score
Answer with the value's number alone.

These recorded examples may help you get a feel for the data.
1. CAAACTAGGTCAAGAGGTCAAACTCCGCTTCCCG :: 7.7
2. TCGAGTAGGTGACGGGGGCATTCAGGGATGAAGA :: 3.32
3. CGAACTAGGACATCCAGGACAGTGAATACATTGA :: 0.322
4. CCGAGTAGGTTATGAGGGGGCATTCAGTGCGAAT :: 1.53
5. CTATGTATGTTAAGGGGGTCATTCAGTTTGAAAG :: 3.94

Okay, now this sequence:
Bench note: what PBM binding z-score did CCTACTGGGCGAAGGTCATTGATCAGTCAAAGCA show?
2.12
